List of AC50 values.
Molecular target: Gamma-aminobutyric acid receptor subunit alpha-1 (Rattus norvegicus, UniProt P62813); further: assay procedure not described here
Sequence (P62813 whole entry): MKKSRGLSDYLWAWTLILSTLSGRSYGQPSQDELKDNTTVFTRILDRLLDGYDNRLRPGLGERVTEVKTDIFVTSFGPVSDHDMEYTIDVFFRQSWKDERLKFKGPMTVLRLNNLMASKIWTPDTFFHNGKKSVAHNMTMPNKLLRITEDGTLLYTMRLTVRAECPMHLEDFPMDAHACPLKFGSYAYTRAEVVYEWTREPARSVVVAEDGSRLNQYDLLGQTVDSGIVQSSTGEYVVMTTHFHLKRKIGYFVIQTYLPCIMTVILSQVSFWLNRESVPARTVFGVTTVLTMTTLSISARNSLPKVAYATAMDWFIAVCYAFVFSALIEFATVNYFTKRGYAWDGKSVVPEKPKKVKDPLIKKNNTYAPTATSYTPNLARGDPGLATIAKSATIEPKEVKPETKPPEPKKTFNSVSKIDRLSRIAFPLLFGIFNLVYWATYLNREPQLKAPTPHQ
Type: functional
measured.parameter: AC50

[
  {
    "compound": "OC[C@H]1O[C@@](CO)(O[C@H]2O[C@H](CO)[C@@H](O)[C@H](O)[C@H]2O)[C@@H](O)[C@@H]1O",
    "study.system": "Gamma-aminobutyric acid receptor subunit alpha-1 (Rattus norvegicus, UniProt P62813)",
    "measured": "> 30 µM"
  },
  {
    "compound": "C[C@]12C=CC(=O)N[C@@H]1CC[C@@H]1[C@@H]2CC[C@]2(C)[C@@H](C(=O)Nc3cc(C(F)(F)F)ccc3C(F)(F)F)CC[C@@H]12 [DUTASTERIDE]",
    "study.system": "Gamma-aminobutyric acid receptor subunit alpha-1 (Rattus norvegicus, UniProt P62813)",
    "measured": "> 30 µM"
  },
  {
    "compound": "CCOC(=O)O[C@]1(C(=O)OCCl)CC[C@H]2[C@@H]3CCC4=CC(=O)C=C[C@]4(C)[C@H]3[C@@H](O)C[C@@]21C [LOTEPREDNOL ETABONATE]",
    "study.system": "Gamma-aminobutyric acid receptor subunit alpha-1 (Rattus norvegicus, UniProt P62813)",
    "measured": "> 30 µM"
  },
  {
    "compound": "CC(C)Cc1ccc(C(C)C(=O)O)cc1 (stereo unspecified)",
    "study.system": "Gamma-aminobutyric acid receptor subunit alpha-1 (Rattus norvegicus, UniProt P62813)",
    "measured": "> 10 µM"
  },
  {
    "compound": "CCCCC1C(=O)N(c2ccccc2)N(c2ccccc2)C1=O",
    "study.system": "Gamma-aminobutyric acid receptor subunit alpha-1 (Rattus norvegicus, UniProt P62813)",
    "measured": "> 10 µM"
  },
  {
    "compound": "COc1cc2c(cc1OC)C(CCc1ccc(Cl)cc1)N(C)CC2 (stereo unspecified)",
    "study.system": "Gamma-aminobutyric acid receptor subunit alpha-1 (Rattus norvegicus, UniProt P62813)",
    "measured": "> 10 µM"
  },
  {
    "compound": "CN(C)CC[C@@H](c1ccc(Cl)cc1)c1ccccn1",
    "study.system": "Gamma-aminobutyric acid receptor subunit alpha-1 (Rattus norvegicus, UniProt P62813)",
    "measured": "> 30 µM"
  },
  {
    "compound": "CC(C)c1nc(N(C)S(C)(=O)=O)nc(-c2ccc(F)cc2)c1/C=C/[C@@H](O)C[C@@H](O)CC(=O)O",
    "study.system": "Gamma-aminobutyric acid receptor subunit alpha-1 (Rattus norvegicus, UniProt P62813)",
    "measured": "> 30 µM"
  },
  {
    "compound": "COc1ccc(CC2c3cc(OC)c(OC)cc3CC[N+]2(C)CCC(=O)OCCCCCOC(=O)CC[N+]2(C)CCc3cc(OC)c(OC)cc3C2Cc2ccc(OC)c(OC)c2)cc1OC (stereo unspecified)",
    "study.system": "Gamma-aminobutyric acid receptor subunit alpha-1 (Rattus norvegicus, UniProt P62813)",
    "measured": "> 30 µM"
  },
  {
    "compound": "CN(CC1(C)CCCO1)S(=O)(=O)c1ccc(Cl)c(S(N)(=O)=O)c1 (stereo unspecified) [MEFRUSIDE]",
    "study.system": "Gamma-aminobutyric acid receptor subunit alpha-1 (Rattus norvegicus, UniProt P62813)",
    "measured": "> 30 µM"
  },
  {
    "compound": "O=C1C(CC[S+]([O-])c2ccccc2)C(=O)N(c2ccccc2)N1c1ccccc1 (stereo unspecified)",
    "study.system": "Gamma-aminobutyric acid receptor subunit alpha-1 (Rattus norvegicus, UniProt P62813)",
    "measured": "> 10 µM"
  },
  {
    "compound": "CCCN[C@H]1CCc2nc(N)sc2C1 [PRAMIPEXOLE]",
    "study.system": "Gamma-aminobutyric acid receptor subunit alpha-1 (Rattus norvegicus, UniProt P62813)",
    "measured": "> 10 µM"
  },
  {
    "compound": "COc1ccccc1OCCNCC(O)COc1cccc2[nH]c3ccccc3c12 (stereo unspecified)",
    "study.system": "Gamma-aminobutyric acid receptor subunit alpha-1 (Rattus norvegicus, UniProt P62813)",
    "measured": "> 10 µM"
  },
  {
    "compound": "[H]/N=C(/N)N/C(=N/[H])NCCc1ccccc1",
    "study.system": "Gamma-aminobutyric acid receptor subunit alpha-1 (Rattus norvegicus, UniProt P62813)",
    "measured": "> 10 µM"
  },
  {
    "compound": "CCC(=O)O[C@H]1CC[C@H]2[C@@H]3CCC4=CC(=O)CC[C@]4(C)[C@H]3CC[C@]12C [TESTOSTERONE PROPIONATE]",
    "study.system": "Gamma-aminobutyric acid receptor subunit alpha-1 (Rattus norvegicus, UniProt P62813)",
    "measured": "> 30 µM"
  },
  {
    "compound": "Oc1ccc2c(c1)[C@@]13CCCC[C@@]1(O)[C@@H](C2)N(CC1CCC1)CC3",
    "study.system": "Gamma-aminobutyric acid receptor subunit alpha-1 (Rattus norvegicus, UniProt P62813)",
    "measured": "> 30 µM"
  },
  {
    "compound": "CNC1=Nc2ccc(Cl)cc2C(c2ccccc2)=[N+]([O-])C1 [CHLORDIAZEPOXIDE]",
    "study.system": "Gamma-aminobutyric acid receptor subunit alpha-1 (Rattus norvegicus, UniProt P62813)",
    "measured": "0.79 µM"
  },
  {
    "compound": "C=CCNc1nc(NCC=C)nc(N2CCN(C(c3ccc(F)cc3)c3ccc(F)cc3)CC2)n1",
    "study.system": "Gamma-aminobutyric acid receptor subunit alpha-1 (Rattus norvegicus, UniProt P62813)",
    "measured": "> 30 µM"
  },
  {
    "compound": "COc1cc2nc(N3CCN(C(=O)C4CCCO4)CC3)nc(N)c2cc1OC (stereo unspecified)",
    "study.system": "Gamma-aminobutyric acid receptor subunit alpha-1 (Rattus norvegicus, UniProt P62813)",
    "measured": "> 10 µM"
  },
  {
    "compound": "Oc1ccc2c(c1)CC[C@H](c1ccccc1)[C@@H]2c1ccc(OCCN2CCCC2)cc1",
    "study.system": "Gamma-aminobutyric acid receptor subunit alpha-1 (Rattus norvegicus, UniProt P62813)",
    "measured": "> 30 µM"
  },
  {
    "compound": "CC(=O)N[C@@H](CS)C(=O)O",
    "study.system": "Gamma-aminobutyric acid receptor subunit alpha-1 (Rattus norvegicus, UniProt P62813)",
    "measured": "> 30 µM"
  },
  {
    "compound": "C=CC[C@@H]1/C=C(\\C)C[C@H](C)C[C@H](OC)[C@H]2O[C@@](O)(C(=O)C(=O)N3CCCC[C@H]3C(=O)O[C@H](/C(C)=C/[C@@H]3CC[C@@H](O)[C@H](OC)C3)[C@H](C)[C@@H](O)CC1=O)[C@H](C)C[C@@H]2OC [TACROLIMUS ANHYDROUS]",
    "study.system": "Gamma-aminobutyric acid receptor subunit alpha-1 (Rattus norvegicus, UniProt P62813)",
    "measured": "> 30 µM"
  },
  {
    "compound": "Cn1c(=O)cc(N2CCC[C@@H](N)C2)n(Cc2ccccc2C#N)c1=O",
    "study.system": "Gamma-aminobutyric acid receptor subunit alpha-1 (Rattus norvegicus, UniProt P62813)",
    "measured": "> 10 µM"
  },
  {
    "compound": "OC1(c2ccc(Cl)cc2)c2ccccc2C2=NCCN21 (stereo unspecified)",
    "study.system": "Gamma-aminobutyric acid receptor subunit alpha-1 (Rattus norvegicus, UniProt P62813)",
    "measured": "> 30 µM"
  },
  {
    "compound": "CC1OC2(CS1)CN1CCC2CC1 (stereo unspecified)",
    "study.system": "Gamma-aminobutyric acid receptor subunit alpha-1 (Rattus norvegicus, UniProt P62813)",
    "measured": "> 10 µM"
  },
  {
    "compound": "CC(=O)O[C@H](CC(=O)[O-])C[N+](C)(C)C",
    "study.system": "Gamma-aminobutyric acid receptor subunit alpha-1 (Rattus norvegicus, UniProt P62813)",
    "measured": "> 30 µM"
  },
  {
    "compound": "NC(=O)CN1CCCC1=O",
    "study.system": "Gamma-aminobutyric acid receptor subunit alpha-1 (Rattus norvegicus, UniProt P62813)",
    "measured": "> 30 µM"
  },
  {
    "compound": "CN(C)CCc1c[nH]c2ccc(Cn3cncn3)cc12",
    "study.system": "Gamma-aminobutyric acid receptor subunit alpha-1 (Rattus norvegicus, UniProt P62813)",
    "measured": "> 30 µM"
  },
  {
    "compound": "CC(=O)[C@]1(O)Cc2c(O)c3c(c(O)c2[C@@H](O[C@H]2C[C@H](N)[C@H](O)[C@H](C)O2)C1)C(=O)c1ccccc1C3=O",
    "study.system": "Gamma-aminobutyric acid receptor subunit alpha-1 (Rattus norvegicus, UniProt P62813)",
    "measured": "> 30 µM"
  },
  {
    "compound": "CCCCC(=O)O[C@]1(C(=O)CO)[C@@H](C)C[C@H]2[C@@H]3CCC4=CC(=O)C=C[C@]4(C)[C@@]3(F)[C@@H](O)C[C@@]21C [BETAMETHASONE VALERATE]",
    "study.system": "Gamma-aminobutyric acid receptor subunit alpha-1 (Rattus norvegicus, UniProt P62813)",
    "measured": "> 10 µM"
  },
  {
    "compound": "CCC[C@H](NC(=O)[C@@H]1[C@H]2CCC[C@H]2CN1C(=O)[C@@H](NC(=O)[C@@H](NC(=O)c1cnccn1)C1CCCCC1)C(C)(C)C)C(=O)C(=O)NC1CC1",
    "study.system": "Gamma-aminobutyric acid receptor subunit alpha-1 (Rattus norvegicus, UniProt P62813)",
    "measured": "> 10 µM"
  }
]
